- MEASUREMENT TARGET: Penicillin-binding protein 3 (Pseudomonas aeruginosa)
- Sequence (Q51504 whole entry): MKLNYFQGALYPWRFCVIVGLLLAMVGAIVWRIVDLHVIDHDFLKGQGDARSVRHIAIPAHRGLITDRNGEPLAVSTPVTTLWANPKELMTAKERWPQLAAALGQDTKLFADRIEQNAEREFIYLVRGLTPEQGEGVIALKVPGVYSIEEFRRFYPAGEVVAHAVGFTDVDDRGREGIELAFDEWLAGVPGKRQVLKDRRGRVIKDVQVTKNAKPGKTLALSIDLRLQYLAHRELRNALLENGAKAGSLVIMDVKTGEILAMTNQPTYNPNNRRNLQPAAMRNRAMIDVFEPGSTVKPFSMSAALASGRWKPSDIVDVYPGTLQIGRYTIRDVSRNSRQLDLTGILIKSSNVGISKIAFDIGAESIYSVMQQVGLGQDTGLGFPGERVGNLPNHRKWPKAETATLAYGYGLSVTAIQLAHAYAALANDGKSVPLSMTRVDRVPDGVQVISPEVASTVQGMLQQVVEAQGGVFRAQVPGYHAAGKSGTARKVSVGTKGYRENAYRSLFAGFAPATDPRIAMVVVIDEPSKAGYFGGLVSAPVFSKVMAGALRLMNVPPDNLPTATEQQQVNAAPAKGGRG
- TEST DETAILS: Inhibition of Pseudomonas aeruginosa PBP3 assessed as reduction in fluorescence intensity using Bocillin-protein as fluorescent substrate preincubated for 20 mins measured after 20 mins by SDS PAGE analysis
MEASURED QUANTITY: IC50 (µM)
Answer format: numeric, µM implied, no suffix.

Briefly, IC50 measured for CC(C)(O/N=C(\C(=O)N[C@H]1CN2CC(C(=O)NCCN3C(=O)c4cc(O)c(O)cc4C3=O)=C(C(=O)O)N2C1=O)c1nc(N)sc1Cl)C(=O)O : 5

* * *

- TEST DETAILS: Plasma concentration in SC dosed CD-1 mouse treated four times at 6 hrs interval measured after 1 hrs
- Assay type: ADME, organism-based
MEASURED QUANTITY: concentration at 1 h (ng/mL)
# output: bare number, implied unit ng/mL

molecule CC(C)(O/N=C(\C(=O)N[C@H]1CN2CC(C(=O)NCCN3C(=O)c4cc(O)c(O)cc4C3=O)=C(C(=O)O)N2C1=O)c1nc(N)sc1Cl)C(=O)O , concentration at 1 h observed: 3280
